compound	melting point
CC(=O)C(C)(CO)CO	60 °C
O=C(N[C@@H](CO)c1ccccc1)c1cccc(I)c1	154 to 156 °C
COc1ccccc1C(=O)NCCc1ccc(-c2ccc(OC(C)(C)C(=O)O)cc2)cc1	133 °C
Cc1nc(CO)cn1Cc1ccccc1	140 to 146 °C
Nc1ncc(Cl)c(CN2CCCC2)c1Cl	98 to 101 °C
FC(F)(F)c1cc(Cl)c(-n2cc(C#CBr)c(C(F)(F)F)n2)c(Cl)c1	92 to 94 °C
CCOP(=O)(OCC)C1CCc2c(-n3cccc3)c(C(F)(F)F)cc3[nH]c(=O)c(=O)n1c23 (centres undefined)	268 °C
CC(=O)c1ccc(CCNS(C)(=O)=O)cc1	80 to 81 °C
CCN(CC)CCCOc1ccc(-c2nnc(CSCCOc3ccccc3)o2)cc1	27 to 31 °C
COc1ccc2c(c1)C(=O)C(CC=O)C2 (racemic)	59 °C
CN(C)CCCCCC=C(NC(=O)C1CC1(C)C)C(=O)O (centres undefined)	101 to 112 °C
COc1ccc(C=CC(=O)O)cc1-c1cc2c(cc1OCc1ccccc1)C(C)(C)CCC2(C)C	200 to 202 °C
COc1cc2nc(SCc3ccccc3)nn2c(Cl)n1	140 to 141 °C
O=S1(=O)NCN(C2CC2)c2c(F)cc(F)c(F)c21	149 to 151 °C
COc1cc2ncc(C(N)=O)c(Nc3cccc(Br)c3)c2cc1OC	239 to 242 °C
NS(=O)(=O)c1cc2c(s1)CCC(=O)C2	148 to 150 °C
COc1ccc(-c2cc(C)c(C(=O)O)c(C)c2)cc1OC	175 to 176 °C
Cc1cc(C)c2ccc(N3C(=O)c4nccnc4C3=O)nc2n1	250 °C
Nc1c(C(=O)CCC(=O)O)cccc1C(=O)c1ccc(Cl)cc1	172 to 177 °C
